# method.notes: chemical genetic growth profiling, strain panel (AID 1159580);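 further: tested at 20 µM; growth read once vehicle control cultures reached saturation at 30 °C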
# measurement.context: S. cerevisiae deletion strains, growth OD, locus YIL073C, strain SPO22, stronger effect = lower value
In all, about 5,500 compounds went through this assay and about 2,000 (36%) were called active. Not shown: some 18% with an inconclusive outcome. The list shows a part of the results.
hey, just use Condition met if measured normalized growth is less than 1, otherwise Condition not met

Some solved entries appear below for comparison.
compound: CC(C)CC(NC(=O)C(Cc1ccccc1)NC(=O)CNC(=O)CNC(=O)C(N)Cc1ccc(O)cc1)C(=O)O (stereo unspecified)
label.value: Condition not met
//
compound: CC[C@H]1OC(=O)[C@H](C)[C@@H](O[C@H]2C[C@@](C)(OC)[C@@H](O)[C@H](C)O2)[C@H](C)[C@@H](O[C@@H]2O[C@H](C)C[C@H](N(C)C)[C@H]2O)[C@](C)(O)C[C@@H](C)CN(C)[C@H](C)[C@@H](O)[C@]1(C)O
label.value: Condition met
//
compound: ClC1=C(Cl)C2(Cl)C3C(Cl)C=CC3C1(Cl)C2(Cl)Cl (stereo unspecified)
label.value: Condition met
//
compound: Cc1cccc(C)c1OCC(C)N (stereo unspecified)
label.value: Condition met

Moving on to the next compound.
Input: Lab note: normalized growth threshold 1. Does this compound come in strictly under it? CC1=C(CC(=O)O)c2cc(F)ccc2/C1=C\c1ccc(S(C)=O)cc1 (stereo unspecified)
Output: Condition not met
